Target: T1, 14-3-3σ (full length) (human, UniProt P31947 1-248)
T1 construct: 14-3-3 protein sigma, human, full length; Expressed from a pPRoeX-Htb vector; also called 14-3-3 isoform σ; the σ isoform; source: E. coli NiCo21(DE3), purified (nickel column, TEV cleavage, second nickel column, SEC)
T1 sequence (looked up): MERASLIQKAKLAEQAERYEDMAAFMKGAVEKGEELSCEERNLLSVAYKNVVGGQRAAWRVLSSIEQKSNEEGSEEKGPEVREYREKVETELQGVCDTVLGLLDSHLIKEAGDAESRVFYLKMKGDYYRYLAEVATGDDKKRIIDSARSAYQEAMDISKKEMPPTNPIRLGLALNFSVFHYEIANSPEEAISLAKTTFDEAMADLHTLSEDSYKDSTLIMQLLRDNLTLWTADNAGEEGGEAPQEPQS
Experiment: fluorescence polarisation; 14-3-3 isoforms (full length) serially diluted twofold in the presence of 10 nM FITC-labelled peptide; 50 mM Tris pH 7.5, 150 mM NaCl, 5 mM MgCl2, 0.05% Tween-20 (no reducing agent listed); one-site specific binding model
Conditions: both partners purified
Non-standard residues stand in square brackets, D forms with d. No end group written: not given here. *: point of attachment. FITC = O=C1OC2(c3ccc(O)cc3Oc3cc(O)ccc32)c2ccc(NC(=S)*)cc21; pS = N[C@@H](COP(=O)(O)O)C(=O)O; Ahx = NCCCCCC(=O)O
measured endpoint: Kd (nM)
Just the number in nM, nothing appended.

# query: Kd of entry {FITC-Ahx}-LLRSH[pS]MPSAAC (also: phosphoserine at 542, position not mapped, Schnurri-3 (SHN3, transcription factor HIVEP3), human, 12-mer around phosphorylated Ser542; also called SHN3pS542-FITC; the FITC-labelled form; source: synthetic peptide, bought: GenScript (purity >95%)) [SHN3pS542 peptide, N-terminally FITC-Ahx-labelled]
26
